test_name: pZn meter calibration with metal buffer (ZP1)
Format: binding
experimental_setup: 50 μM bicine metal buffer, [ZP1]=100 nM; read-out: KD, fluorescence intensity midpoint
value_kind: Kd

For O=C(O)c1ccccc1-c1c2cc(Cl)c(=O)c(CN(Cc3ccccn3)Cc3ccccn3)c-2oc2c(CN(Cc3ccccn3)Cc3ccccn3)c(O)c(Cl)cc12 the molecule record lists Kd as ~0.5 nM
